# Test system: A498
# Protocol Description: NCI tumour cell line growth inhibition, 48 h
Active and inactive are the calls of the source. Cut-off read from the data, not from the text of the source: active = GI50 up to about 1.1 µM and inactive = higher.
Respond with a class label; see t = active, f = inactive

Data request: Called result for CC1(C)C=C(/C=C2/N(S(=O)(=O)C(F)(F)F)C(/C=C3/N(S(=O)(=O)C(F)(F)F)C(C)(C#N)CC3(C)C)=CC2(C)C)N=C1/C=C1/CC(C)(C)C(=O)N1 (stereo unspecified)
Data returned: f

Data request: Called result for CCCC(O)C(NC(=O)CCl)C(=O)O (stereo unspecified)
Data returned: f

Data request: Called result for Cc1cc(C)c2c(O)cc(-c3ccc(F)cc3)nc2n1
Data returned: f

Data request: Called result for CCC(C(=O)C(=O)C(CC)P1(=O)OC(C)(C)CN1C(C)(C)C)P1(=O)OC(C)(C)CN1C(C)(C)C (stereo unspecified)
Data returned: f

Data request: Called result for CSCCC(NC(=O)C(Cc1ccccc1)NC(=O)CNC(=O)CNC(=O)C(N)Cc1ccc(O)cc1)C(=O)O (stereo unspecified)
Data returned: f

Data request: Called result for COC(=O)C(=O)C(C(=O)C(=O)Nc1cc(C)ccc1C)c1nc2ccccc2nc1O (stereo unspecified)
Data returned: f

Data request: Called result for COC1=C2CC(C)CC(OC)C(OC(=O)CCCN)C(C)/C=C(\C)C(OC(N)=O)C(OC)/C=C\C=C(/C)C(=O)NC(=CC1=O)C2=O (stereo unspecified)
Data returned: f

Data request: Called result for Cc1ccc(SC[C@@]2(C(F)F)NC(=O)NC2=O)cc1
Data returned: f

Data request: Called result for NC1=Nc2cc(Cl)ccc2Sc2nc3ccccc3n21
Data returned: f

Data request: Called result for Nc1nc(Cl)cc(NCC2(O)CC(CO)C2)n1 (stereo unspecified)
Data returned: f

Data request: Called result for N=C(N)NCCN1CCCCCc2ccccc21
Data returned: f

Data request: Called result for CCOC(=O)c1cc2c3c(cc(OC)c2[nH]1)N(C(=O)OCC)CC3
Data returned: f

Data request: Called result for NNC(=O)c1ccc[n+](CCc2ccccc2)c1
Data returned: f

Data request: Called result for CCOC(=O)CCC(NC(=O)Cc1ccc(Nc2nc3ccccc3nc2-c2ccccc2)cc1)C(=O)OCC (stereo unspecified)
Data returned: f

Data request: Called result for CC(=O)OC1(C)C(=O)OC/C2=C/CN(C)CCC(OC(=O)C(O)(C(C)Cl)CC1C)C2=O.c1ccccc1 (stereo unspecified)
Data returned: f

Data request: Called result for CCCCCC(O)C1C(=O)OC(C)C(O)/C=C/C=C/C=C/C=C\C=C(\C)C(O)CC(O)CC(O)CC(O)CC(O)CC(O)CC1O (stereo unspecified)
Data returned: f

Data request: Called result for C[n+]1c(-c2ccccc2)cc2/c(=C\c3ccccc3)c3ccccc3n21
Data returned: f

Data request: Called result for O=P(Nc1ccccc1)(Oc1ccccc1)N(CCCl)CCCl (stereo unspecified)
Data returned: f

Data request: Called result for Cc1cc2c(cc1Cl)SC(c1ccccc1)C(=O)NS2(=O)=O (stereo unspecified)
Data returned: f

Data request: Called result for COc1cc([C@@H]2c3cc4c(cc3[C@@H](/N=C/c3ccc(C(=O)O[C@@H](C(=O)O[C@H]5C[C@@]6(O)[C@@H](OC(=O)c7ccccc7)[C@@H]7[C@]8(OC(C)=O)CO[C@@H]8C[C@H](O)[C@@]7(C)C(=O)[C@H](OC(C)=O)C(=C5C)C6(C)C)[C@@H](NC(=O)c5ccccc5)c5ccccc5)cc3)[C@H]3COC(=O)[C@H]23)OCO4)cc(OC)c1O
Data returned: t

Data request: Called result for C[C@@H](N[C@H]1CCC[C@@H]1O)c1ccccc1.C[C@@H](N[C@H]1CCC[C@H]1O)c1ccccc1
Data returned: f

----------
# System: MOLT-4
# Protocol Description: NCI tumour cell line growth inhibition, 48 h
Active and inactive are the calls of the source. Cut-off read from the data, not from the text of the source: active = GI50 up to about 1.1 µM and inactive = higher.
I'd appreciate it if you could supply GI50 values for the items below.

For this compound ( COc1cc(/C=C(\NC(=O)c2ccccc2)c2nc3cc([N+](=O)[O-])ccc3[nH]2)cc(OC)c1OC ), measured GI50 is 29 µM (inactive)

For this compound ( Nc1ccc2c(c1)C(=O)N1CCC[C@H]1C(=O)N2 ), measured GI50 is > 100 µM (inactive)

For this compound ( COC(=O)C1=C(O)c2cc(OC)c(OC)c(OC)c2[C@H](c2cc(OC)c(OC)c(OC)c2)C1C(=O)OC (stereo partly specified) ), measured GI50 is 22.2 µM (inactive)

For this compound ( COc1ccc(C(=O)NCCN(C)C)c2nc3ccccc3nc12 ), measured GI50 is 1.94 µM (inactive)

For this compound ( CCCC(O)C(NC(=O)CCl)C(=O)O (stereo unspecified) ), measured GI50 is > 100 µM (inactive)

For this compound ( CCOC(=O)c1ccc(Nc2nc3ccc(C(F)(F)F)cc3nc2-c2ccccc2)cc1 ), measured GI50 is 38.1 µM (inactive)

----------
# System: OVCAR-4
# Protocol Description: NCI tumour cell line growth inhibition, 48 h
Calls of active or inactive are those of the source. Cut-off read from the data, not from the text of the source: active = GI50 up to about 1.1 µM and inactive = higher.
Respond with a class label; see active, inactive

Data request: Called result for CCCCCC(O)C1C(=O)OC(C)C(O)/C=C/C=C/C=C/C=C\C=C(\C)C(O)CC(O)CC(O)CC(O)CC(O)CC(O)CC1O (centres undefined)
Data returned: inactive

Data request: Called result for CC(=O)O[C@H]1CC[C@@]2(C)C(=CC[C@H]3C4=CC=C(C(C)=O)[C@@]4(C)CCC32)C1 (some centres undefined)
Data returned: inactive

Data request: Called result for COC1/C=C/C(C)C(OC)CC(O)/C=C/C(C)C(C(C)C(OC)C(C)CCC(=O)C(C)C(C/C=C/N(C)C=O)OC)OC(=O)/C=C/C=C(\C)CC(OC)C(OC)C2=CC(=O)O[C@@H](C(C)C(OC)C1)[C@H]2O (some centres undefined)
Data returned: active

Data request: Called result for COc1ccc2c(c1)c1c(C)c3cnccc3c(C)c1n2CCCN
Data returned: active

----------
# Test system: PC-3
# Protocol Description: NCI tumour cell line growth inhibition, 48 h
Activity calls are given as the source filed them. No stated cut-off is given here; in the data, active = GI50 up to about 1.1 µM and inactive = higher.
Result Type: GI50

Lab note: molecule CCOC(=O)c1cc(C(O)P2(=O)N(CC(C)(C)C)[C@@H]3CCCC[C@H]3N2CC(C)(C)C)cn1C(=O)OC(C)(C)C (some centres not stated) tested on PC-3; recorded GI50 was 15.9 µM (inactive)

Lab note: molecule Nc1cc(N2CCCC2)nc(=O)n1-c1ccccc1 tested on PC-3; recorded GI50 was > 100 µM (inactive)

Lab note: molecule NC1=Nc2cc(Cl)ccc2Sc2nc3ccccc3n21 tested on PC-3; recorded GI50 was 6.76 µM (inactive)

Lab note: molecule CCOC(=O)NC tested on PC-3; recorded GI50 was > 100 µM (inactive)

Lab note: molecule Cc1cc2c(cc1Cl)S(=O)(=O)OC(c1ccc([N+](=O)[O-])cc1)=N2 tested on PC-3; recorded GI50 was > 100 µM (inactive)

Lab note: molecule N#Cc1c(Nc2ccccc2)[n+]([O-])c2ccc(Cl)cc2[n+]1[O-] tested on PC-3; recorded GI50 was 3.36 µM (inactive)

Lab note: molecule CCOC(=O)CCC(NC(=O)Cc1ccc(Nc2nc3ccccc3nc2-c2ccccc2)cc1)C(=O)OCC (configuration not stated) tested on PC-3; recorded GI50 was 17.4 µM (inactive)

Lab note: molecule Nc1nc(N)c2ncn(-c3ccccc3)c2n1 tested on PC-3; recorded GI50 was > 100 µM (inactive)

Lab note: molecule COc1cc2cc3c4c(cc(OC)c(OC)c4c2cc1OC)CCN3C tested on PC-3; recorded GI50 was 3.52 µM (inactive)

Lab note: molecule COc1ccc(-c2cc3c(nn2)-c2ccccc2C3=O)cc1 tested on PC-3; recorded GI50 was > 10 µM (inactive)

Lab note: molecule C=CCOCn1cc(F)c(=O)[nH]c1=O tested on PC-3; recorded GI50 was > 100 µM (inactive)

Lab note: molecule C[C@H]1C[C@H](C)c2ccccc2N(C)/C1=N\c1ccccc1 tested on PC-3; recorded GI50 was 29.9 µM (inactive)

----------
# Test system: SK-MEL-28
# Protocol Description: NCI tumour cell line growth inhibition, 48 h
Activity calls are given as the source filed them. No stated cut-off is given here; in the data, active = GI50 up to about 1.1 µM and inactive = higher.
I'd appreciate it if you could supply GI50 values for the items below.

Lab note: compound NNC(=S)N/N=C(\CCCC(=O)NCCc1ccccc1)CC(=O)c1ccccc1 tested on SK-MEL-28; recorded GI50 was > 100 µM (inactive)

Lab note: compound CC(=O)OC1(C)C(=O)OC/C2=C/CN(C)CCC(OC(=O)C(O)(C(C)Cl)CC1C)C2=O.c1ccccc1 (stereo not drawn) tested on SK-MEL-28; recorded GI50 was > 100 µM (inactive)

Lab note: compound COC(=O)C(Cc1c[nH]c2ccccc12)NP(=O)(O)OCC1OC(n2cc(Br)c(=O)[nH]c2=O)CC1O (stereo not drawn) tested on SK-MEL-28; recorded GI50 was > 100 µM (inactive)

Lab note: compound COc1ccc(OC(C)C(=O)O)c2c(=O)ccccc12 (stereo not drawn) tested on SK-MEL-28; recorded GI50 was > 100 µM (inactive)

Lab note: compound Cc1cc2c(cc1Cl)SC(NNC(=O)c1ccco1)=NS2(=O)=O tested on SK-MEL-28; recorded GI50 was > 10 µM (inactive)

Lab note: compound Cc1ccc(C(C)(C)C[P+](C)(c2ccccc2)c2ccccc2)cc1 tested on SK-MEL-28; recorded GI50 was 8.51 µM (inactive)

Lab note: compound CC1CC(=O)Nc2ccccc2N1C(=O)CN1CCC(CCCCN(C)C)CC1 (stereo not drawn) tested on SK-MEL-28; recorded GI50 was > 100 µM (inactive)

Lab note: compound O=C1N/C(=N/N=C\c2ccccc2)N/C1=C/c1ccc(Cl)cc1 tested on SK-MEL-28; recorded GI50 was 39 µM (inactive)

Lab note: compound Cc1[nH]c2ccccc2c1-c1cc(-c2cc(-c3c(C)[nH]c4ccccc34)on2)no1 tested on SK-MEL-28; recorded GI50 was > 100 µM (inactive)

Lab note: compound N#Cc1c(Nc2ccccc2)[n+]([O-])c2ccc(Cl)cc2[n+]1[O-] tested on SK-MEL-28; recorded GI50 was 12.9 µM (inactive)

Lab note: compound CN(C)C(=S)/N=c1\ss/c(=N\S(=O)(=O)c2ccccc2)n1C tested on SK-MEL-28; recorded GI50 was > 100 µM (inactive)

Lab note: compound CCO[C@@H]1CCC([S+]([O-])c2ccc(C)cc2)=CO1 (stereo partly drawn) tested on SK-MEL-28; recorded GI50 was > 100 µM (inactive)

Lab note: compound C=C1CC[C@H]2C(=O)OC(c3ccoc3)C[C@]2(C)C/C=C\C=C/1C(=O)OC (stereo partly drawn) tested on SK-MEL-28; recorded GI50 was > 25 µM (inactive)
